Tested on: OVCAR-4
Test: NCI tumour cell line growth inhibition, 48 h
Calls of active or inactive are those of the source. No stated cut-off is given here; in the data, active = GI50 up to about 1.1 µM and inactive = higher.
observation_type: GI50

The following compounds have reported results that may help.
Cc1cc(S(=O)(=O)Nc2nc3ccccc3[nH]2)c(S)cc1Cl | 61.4 µM (inactive)
CCOC(OCC)C(CC)[Se]c1ccccc1[N+](=O)[O-] (stereo not given) | > 55.5 µM (inactive)
O=c1c2cc(I)ccc2nc(SCc2nncs2)n1Cc1ccccc1 | 12.6 µM (inactive)
N#C[BH2-][n+]1cn(C2CC(O)C(COP(=O)(O)OC3CC(n4cnc5c(=O)[nH]c(N)nc54)OC3CO)O2)c2nc(N)[nH]c(=O)c21 (stereo not given) | > 100 µM (inactive)
COc1ccc(C(Cc2ccccc2)C2NC(=S)NC2=O)cc1 (stereo not given) | > 25 µM (inactive)
COc1ccc(/C=C/c2sc3ccccc3[n+]2CCCCI)cc1OC | > 10 µM (inactive)
CCCCc1ccc(Nc2nc(N)c3[nH]cnc3n2)cc1 | 24.5 µM (inactive)
Cc1ccc2c3c1O[C@H]1c4[nH]c5ccccc5c4C[C@@]4(O)[C@@H](C2)N(C)CC[C@]314 | 16.9 µM (inactive)
CC(C)[Si]1(C(C)C)OCC2OC(n3ccc(=O)[nH]c3=O)C([Se]c3ccccc3)C2O[Si](C(C)C)(C(C)C)O1 (stereo not given) | 2.88 µM (inactive)

Note: attention shifts to another entry.
Nc1nc(Cl)cc(NCC2(CO)CCCC2)n1 yielded GI50 of 19 µM (inactive)

====

Test system: RXF 393
Assay: NCI tumour cell line growth inhibition, 48 h
Activity calls are given as the source filed them. Rule as the data show it: active = GI50 up to about 1.1 µM and inactive = higher.
observation_type: GI50

CCN(CC)c1ccc(/N=C2\C=C(Cl)C(=O)c3ncccc32)c(C)c1 yielded GI50 of 3.92 µM (inactive)

CN1CCN(c2cc3nc4cc(O)cc(O)c4c(O)c3cc2N)CC1 yielded GI50 of 20.7 µM (inactive)

O=C(NCCCCCCCCNC(=O)Nc1cccc2ccccc12)Nc1cccc2ccccc12 yielded GI50 of 22.6 µM (inactive)

COc1cc(CC(=O)O)c([N+](=O)[O-])cc1OC yielded GI50 of > 100 µM (inactive)

O=C1Oc2cc3c(c4cccc1c24)OCN(c1ccc(Cl)cc1)C3 yielded GI50 of > 52.7 µM (inactive)

Nc1nc(Cl)cc(NCC2(CO)CCCC2)n1 yielded GI50 of > 100 µM (inactive)

====

Test system: HOP-18
Test: NCI tumour cell line growth inhibition, 48 h
The source made the active and inactive calls. Rule as the data show it: active = GI50 up to about 1.1 µM and inactive = higher.
observation_type: GI50

Cc1c(C(=O)C/C(=N/NC(=O)c2ccccc2)C(=O)Nc2ccc(Cl)cc2)[n+]([O-])c2ccccc2[n+]1[O-] | > 100 µM (inactive)
On1c(-c2ccccc2)c(-c2c(-c3ccccc3)n(O)c3ccccc23)c2ccccc21 | 26.1 µM (inactive)
CCCc1c(C(=O)OCC)[nH]c(-c2ccc(-c3[nH]c(C(=O)OCC)c(CCC)c3C(=O)OCC)s2)c1C(=O)OCC | > 100 µM (inactive)
O=C1C(Cl)=C(Cl)C(=O)N1c1ccc(F)cc1 [FLUOROIMIDE] | 21.1 µM (inactive)
O=C1C2=C(C(c3ccccc3)=C1c1ccccc1)c1ccccc1C1(c3ccccc3)C2=C(O)C(c2ccccc2)=C1c1ccccc1 (centres undefined) | > 100 µM (inactive)
O=C1Oc2cc3c(c4cccc1c24)OCN(c1ccc(Cl)cc1)C3 | 34 µM (inactive)
CCOP(=O)(OCC)C(C(=O)OC)C(=O)C(=O)Nc1ccc(Cl)cc1Cl (centres undefined) | 24 µM (inactive)
CS(=O)(=O)Sc1ccc(Cl)cc1 | 26.8 µM (inactive)

CC1=N/C(=C\c2ccc([N+](=O)[O-])cc2)C(=O)O1 yielded GI50 of > 100 µM (inactive)
